Reference source for all entries: patent US20220332795A1

target: T1, recombinant biotinylated CD71 extracellular domain (Sino Biologics) with an N-terminal 6His tag (human, UniProt P02786 89-760, biotinylated (site not stated)); assay: primary solution ELISA screen, signal on hCD71 over HSA
T1 construct: extracellular domain; also called hCD71; huCD71 ECD
T1 sequence (P02786 other isoform, or with tags, fused parts or gaps): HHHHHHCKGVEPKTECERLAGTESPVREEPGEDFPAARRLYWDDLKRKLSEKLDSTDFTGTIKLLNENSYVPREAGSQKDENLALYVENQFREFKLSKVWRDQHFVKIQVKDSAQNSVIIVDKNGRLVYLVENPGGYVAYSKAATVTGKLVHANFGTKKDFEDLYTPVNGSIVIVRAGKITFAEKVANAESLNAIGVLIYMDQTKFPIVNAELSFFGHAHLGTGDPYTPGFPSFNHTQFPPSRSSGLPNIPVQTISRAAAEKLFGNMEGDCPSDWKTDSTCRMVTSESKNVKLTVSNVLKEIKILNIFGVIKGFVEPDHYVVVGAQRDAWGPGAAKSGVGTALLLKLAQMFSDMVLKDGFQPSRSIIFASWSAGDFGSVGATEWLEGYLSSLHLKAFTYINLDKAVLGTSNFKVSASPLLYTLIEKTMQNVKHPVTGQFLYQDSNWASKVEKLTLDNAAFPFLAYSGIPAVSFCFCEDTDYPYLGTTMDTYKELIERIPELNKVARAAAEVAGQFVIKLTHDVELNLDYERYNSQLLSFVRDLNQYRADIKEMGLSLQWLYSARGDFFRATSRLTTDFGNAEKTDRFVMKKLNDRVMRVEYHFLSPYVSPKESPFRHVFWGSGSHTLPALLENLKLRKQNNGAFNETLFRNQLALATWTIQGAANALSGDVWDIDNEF
value-kind: hCD71:HSA
Keep the answer to the number alone.

Entry SEQ ID NO 33 (designed binder, not shown: small tags and cut ends, FN3 domain, hit of the apical domain panning) MLPAPKNLVVSRVTEDSARLSWTAPDAAFDSFGIAYVESYWYGEAIVLTVPGSERSYDLTGLKPGTEYNVPIYGVKGGDGSGPLSAIFTT ; hCD71:HSA = 132

Lookup result for SEQ ID NO 93 (designed binder, not shown: small tags and cut ends, FN3 domain, hit of the apical domain panning) MLPAPKNLVVSRVTEDSARLSWTAPDAAFDSFAIEYYEPVPAGEAIYLDVPGSERSYDLTGLKPGTEYDVTIYGVKGGYYSHPLFASFTT ; measured hCD71:HSA: 91

Noted for SEQ ID NO 47 (designed binder, not shown: small tags and cut ends, FN3 domain, hit of the apical domain panning) MLPAPKNLVVSRVTEDSARLSWTAPDAAFDSFGIVYLEMMVTGEAIVLTVPGSERSYDLTGLKPGTEYDVPILGVKGGTRSVPLSAIFTT : its hCD71:HSA reads 98

Entry SEQ ID NO 13 (designed binder, not shown: small tags and cut ends, FN3 domain, hit of the apical domain panning) MLPAPKNLVVSRVTEDSARLSWTAPDAAFDSFLIAYPEDGFRGEAIVLTVPGSERSYDLTGLKPGTEYPVPILGVKGGGGSGPLSAIFTT , hCD71:HSA reported as 70

Sample SEQ ID NO 18 (designed binder, not shown: small tags and cut ends, FN3 domain, hit of the apical domain panning) MLPAPKNLVVSRVTEDSARLSWTAPDAAFDSFNIMYHEIIYVGEAIVLTVPGSERSYDLTGLKPGTEYPVPIEGVKGGGTSGPLSAIFTT ; hCD71:HSA observed: 79

// hCD71:HSA value for SEQ ID NO 53 (designed binder, not shown: small tags and cut ends, FN3 domain, hit of the apical domain panning) MLPAPENLVVSEVTEDSARLSWQGVARAFDSFLITYREQIFAGEVIVLTVPGSERSYDLTGLKPGTEYPVWIQGVKGGSPSAPLSAESTT : 40

hCD71:HSA reading for SEQ ID NO 65 (designed binder, not shown: small tags and cut ends, FN3 domain, hit of the apical domain panning) MLPAPKNLVVSRVTKDSARLSWTAPDAAFDSFPIAYAEPRPDGEAIVLTVPGSERSYDLTGLKPGTEYSVLIHGVKGGLLSSPLSAIFTT : 60
